Reference for the values: ChEMBL document CHEMBL1156829

tested on: Plasmodium falciparum; assay: NOVARTIS: Inhibition of Plasmodium falciparum W2 (drug-resistant) proliferation in erythrocyte-based infection assay; format: functional, organism-based; conditions: Plasmodium falciparum, W2; read-out: EC50
EC50 by entry:
Kindly answer with a numeric value in nM, unit omitted.

{"compound": "CCOC(=O)C1=C(C)NC2=C(C(=O)CC(c3ccc(OC)cc3)C2)C1c1ccsc1 (configuration not stated)", "EC50 / nM": 62}
{"compound": "CCCN(CCC)S(=O)(=O)c1ccc(C(=O)Nc2ccccc2C(=O)Oc2ccc3c(c2)c(C(=O)OCC)c(C)n3-c2ccccc2)cc1", "EC50 / nM": 744}
{"compound": "c1ccc2c(c1)[nH]c1c(NCCN3CCCCC3)ncnc12", "EC50 / nM": 788}
{"compound": "COc1ccc(CNCc2cc3c(-c4ccc(C)cc4)nn(-c4ccccc4)c3[nH]c2=O)cc1", "EC50 / nM": 842}

Would you kindly look at the next entry?
Input: Please report the recorded EC50 for O=C(Nc1ccccc1)C(=Cc1ccncc1)NC(=O)c1ccccc1 .
Output: 870
